Exercise: for every item that follows, state its recorded growth.
System: HCC-2998 colon
Experiment: NCI-60 one-dose screen, 48 h (100 = growth as untreated, 0 = no growth, -100 = all killed)
Settings: 10 µM unless noted
This is part of a sample that, as a whole, favours compounds with a hit. Of some 83,000 tested, about 20% had one in any assay.
One number for each entry, in %.

Some molecules with known growth results, for comparison:
{"MOLECULE": "CCCCCCCCO/N=C\\c1c2c(O)c3c(O)c(C)c4c(c3c1O)C(=O)C(C)(O/C=C\\C(OC)C(C)C(OC(C)=O)C(C)C(O)C(C)C(O)C(C)/C=C\\C=C(\\C)C(=O)N2)O4 (centres undefined)", "growth, %": 14.7}
{"MOLECULE": "Nc1c(C(=O)Nc2cccc3cnccc23)sc2nc3c(cc12)CN(Cc1ccccc1)CC3", "growth, %": 115}
{"MOLECULE": "O=C1/C=C/[C@@H](O)[C@@H]2C[C@@H](O)C[C@H]2/C=C/CCC[C@H](CCc2cccc3ccccc23)O1", "growth, %": 3.84}
{"MOLECULE": "COc1cc2nc(-c3ccc(Cl)cc3)cc(OCCCN3CCCC3)c2cc1OC", "growth, %": 72.4}
{"MOLECULE": "CC(C)N1C(=O)S/C(=C2/SC(=O)N(C(C)C)C2=O)C1=O", "growth, %": 104}
{"MOLECULE": "O=C(O)c1ccc2c(c1)C(=O)N(Cc1ccccc1)C2=O", "growth, %": 99.2}
{"MOLECULE": "COCCCN1CC(O)=C(c2nc(-c3ccc(C)cc3)cs2)C1=N", "growth, %": 112}
{"MOLECULE": "CCCN1[C@@H]2CC[C@H]1/C(=C\\c1ccc(OC)c(OC)c1)C(=O)/C2=C/c1ccc(OC)c(OC)c1", "growth, %": 86.7}

Lab note: next molecule to report on.
# input Field request: growth | item: CCCOc1ccc(/C=N/Nc2cc(C)nc3ccc(Br)cc23)cc1
# output 57.3

---

Exercise: for every item that follows, state its recorded growth.
Tested on: ACHN renal
Assay: NCI-60 one-dose screen, 48 h (100 = growth as untreated, 0 = no growth, -100 = all killed)
Settings: 10 µM unless noted
This is part of a sample that, as a whole, favours compounds with a hit. Of some 83,000 tested, about 20% had one in any assay.
Numbers only, in %.

Some compounds with known growth results, for comparison:
{"COMPOUND": "CC1(C)NCCC[C@]2(C)[C@H]3CC[C@@H]4[C@H]5[C@H](C(=O)/C=C/c6ccco6)CC[C@]5(CO)CC[C@@]4(C)[C@]3(C)CC[C@@H]12", "RECORDED_RESULT": 99.6}
{"COMPOUND": "O=S(=O)(Nc1ccc(-n2cnc3cc(-c4ccc(O)cc4)ccc32)cc1)c1ccccc1", "RECORDED_RESULT": 80.6}
{"COMPOUND": "OCc1cnccc1NCCCCOc1ccc(Oc2ccccc2)cc1", "RECORDED_RESULT": 80.3}
{"COMPOUND": "Cn1c(N2NC(=O)C(N=Nc3ccc(S(N)(=O)=O)cc3)C2=O)nc(-c2ccco2)c(C#N)c1=O (stereo not given)", "RECORDED_RESULT": 81.6}

Lab note: next compound to report on.
# input Field request: growth | item: CCNC(=O)Oc1ccc(/C(=C(\C)c2ccccc2)c2ccc(OCCN(CC)CC)cc2)cc1
# output 102

---

System: SK-MEL-2 melanoma
Test: NCI-60 one-dose screen, 48 h (100 = growth as untreated, 0 = no growth, -100 = all killed)
Conditions: 10 µM unless noted
The panel holds about 83,000 compounds, 20% with a hit somewhere; the sample as a whole holds those more often.
Exercise: for every item that follows, state its recorded growth.
One number for each entry, in %.

{"COMPOUND": "O=C(N/N=C/c1ccc(Oc2ccccc2)cc1)c1cnn2c1NC(c1ccccc1)C2 (centres undefined)", "QUANTITY_UNIT": "%", "RECORDED_RESULT": 4.54}
{"COMPOUND": "CCOC(=O)Nc1ccc(-c2ccc3c(c2)NC(=O)/C3=C\\c2ccc[nH]2)cc1", "QUANTITY_UNIT": "%", "RECORDED_RESULT": 114}
{"COMPOUND": "CC1(C)CC(=O)C2=C(C1)N(c1ccc(F)cc1F)C(N)=C(C#N)C2c1cc(Br)ccc1F (centres undefined)", "QUANTITY_UNIT": "%", "RECORDED_RESULT": 94}
{"COMPOUND": "O=c1ccc(-c2nc(N3CCOCC3)c3ccccc3n2)c[nH]1", "QUANTITY_UNIT": "%", "RECORDED_RESULT": 108}
{"COMPOUND": "COC(=O)C1=C(C(=O)ON)[C@@H]2C=C[C@@]1([C@@H](Cc1ccccc1)Nc1ccccc1)O2", "QUANTITY_UNIT": "%", "RECORDED_RESULT": 94}
{"COMPOUND": "COc1cc(CC(=O)n2ncc3ccc(N)cc32)cc(OC)c1OC", "QUANTITY_UNIT": "%", "RECORDED_RESULT": 98}
{"COMPOUND": "COc1ccc(-c2[nH][nH]c(=O)c2-c2nc3ccccc3s2)cc1", "QUANTITY_UNIT": "%", "RECORDED_RESULT": 104}
{"COMPOUND": "O=C(c1nc2ccccc2[nH]1)C1C(c2ccc(Cl)cc2)C2CC3CCCC[C@H]3N2[C@@]12C(=O)Nc1cc(Cl)ccc12 (some centres undefined)", "QUANTITY_UNIT": "%", "RECORDED_RESULT": 66.7}

Lab note: next compound to report on.
# input API: value(readout=growth, system=SK-MEL-2 melanoma) for record Cc1ncc(C(=O)Nc2ccc(CN3CCN(C)CC3)c(C(F)(F)F)c2)cc1C#Cc1cnc(N)cc1C#N
# output -63.8

---

Test system: U251 CNS
Test: NCI-60 one-dose screen, 48 h
Conditions: 10 µM unless noted
Compounds without any hit were thinned out: in the full panel of roughly 83,000, 20% have a hit. Activity calls are given as the source filed them. Rule for the calls: active = growth percent below 10; inactive = the rest.
Form entry, call: pick from active, inactive

Would you please look over these solved cases?
{"COMPOUND": "Cc1ccc(-n2nc3c(c(C#N)c2=O)CC(c2ccccc2[N+](=O)[O-])C([N+](=O)[O-])=C3O)cc1 (centres undefined)", "CAT": "inactive"}
{"COMPOUND": "N#Cc1c(NC(=O)NCc2ccccc2)sc2c1CCCC2", "CAT": "inactive"}
{"COMPOUND": "COC(=O)C(CC=O)C(=O)C(=O)Nc1cccc(C(F)(F)F)c1 (centres undefined)", "CAT": "inactive"}
{"COMPOUND": "C#Cc1cccc(NC(=O)c2cccc(NC(=O)CCl)c2)c1", "CAT": "active"}
{"COMPOUND": "COc1ccc(C(=O)c2cc(C)c(OC)c(C)c2)c(OC)c1NC(C)=O", "CAT": "inactive"}

# input I'd appreciate the recorded outcome for COc1ccc(CC(C)=C(c2ccc(OCCN3CCCCCC3)cc2)c2ccc(OCCN3CCCCCC3)cc2)cc1 from this test.
# output active

# input I'd appreciate the recorded outcome for C=C1C(=O)O[C@H]2[C@H]1CC/C(COC(=O)NCc1c[nH]c3ccc(Cl)cc13)=C\CC[C@@]1(C)O[C@@H]21 from this test.
# output active

# input I'd appreciate the recorded outcome for CCc1ccc(CNc2ccc(N3CCOCC3)c(C(=O)O)c2)cc1 from this test.
# output inactive

---

Tested on: NCI-H522 lung
Assay: NCI-60 one-dose screen, 48 h (100 = growth as untreated, 0 = no growth, -100 = all killed)
Settings: 10 µM unless noted
About 83,000 compounds went through this panel and 20% of them were active in at least one assay; those are over-represented in the sample as a whole.
MEASUREMENT_NAME: growth (%)
Answers are plain numbers, in %.

{"COMPOUND": "COc1cc2nc(-c3ccc(C(F)(F)F)cc3)cc(OCCN3CCCCC3)c2cc1OC", "QUANTITY_UNIT": "%", "growth": 91.2}
{"COMPOUND": "C=C1C(=O)O[C@H]2[C@H]1CC/C(CNC(=O)c1cccc3ccccc13)=C\\CC[C@@]1(C)O[C@@H]21", "QUANTITY_UNIT": "%", "growth": -46.7}
{"COMPOUND": "O=C1c2c(c3c4cccc(F)c4[nH]c3c3ccc4ccccc4c23)C(=O)N1O", "QUANTITY_UNIT": "%", "growth": 30}
{"COMPOUND": "CC1(C)CC(O)CCCCCCOc2c(CN)cccc2NC(=O)c2nc(cnc2N)-c2ccc(cc2)S1(=O)=O (centres undefined)", "QUANTITY_UNIT": "%", "growth": 12.6}
{"COMPOUND": "CCCOC(=O)N[C@H]1CCc2c(Cl)c(OC)c(OC)c(OC)c2-c2ccc(SC)c(=O)cc21", "QUANTITY_UNIT": "%", "growth": 12.3}
{"COMPOUND": "COc1ccc(/C=C/c2nc(Nc3ccc(S(=O)(=O)NC(C)=O)cc3)c3ccccc3n2)cc1", "QUANTITY_UNIT": "%", "growth": 76.3}

Please look at the items below and tell me growth for each one, in order.
1. O=C(Nc1ccc(Cl)cc1)c1cc(NCc2cc(O)ccc2O)ccc1O
2. CC(C)c1ccc(Nc2ccc3c(OCCCN4CCN(C)CC4)cccc3n2)cc1
3. OCc1cnc2ccccc2c1NC1CCCCCC1

# output
[-59.7, 83.2, 61.7]
